# experiment description: Tmax in rat at 5 mg/kg
# Format: ADME, organism-based
# Set-up: dose 5 mg/kg
# experimental setup: in vivo

compound | unit string | Tmax
CC(=O)N[C@H](C)c1cc(-c2cnc(Oc3ccc(OC(C)C)cc3)s2)no1 | h | 4.3
CC(=O)N[C@@H](C)c1cc(-c2cnc(Oc3ccc(OC(C)C)cc3)s2)no1 | h | 5.3
CC(=O)NC(C)c1cc(-c2cnc(Oc3ccc(OC(C)C)cc3)s2)no1 (racemic) | h | 4.3

----------
# experiment description: Plasma clearance in rat at 5 mg/kg
# Type: ADME, organism-based
# Set-up: dose 5 mg/kg
reported metric: clearance

compound | reported value
CC(=O)NC(C)c1cc(-c2cnc(Oc3ccc(OC(C)C)cc3)s2)no1 (racemic) | 3.33 mL/min/kg
CC(=O)N[C@@H](C)c1cc(-c2cnc(Oc3ccc(OC(C)C)cc3)s2)no1 | 5 mL/min/kg
CC(=O)N[C@H](C)c1cc(-c2cnc(Oc3ccc(OC(C)C)cc3)s2)no1 | 3.33 mL/min/kg
